Assay: Phase 1 trial: plasma pharmacokinetics
Format: in vivo
Details: human, 80 mg, Cycle 1 Day 1, 80 mg BID (n = 3), read-out: MRTINF_obs mean

- Chemical Structure: "COc1ccc(CN2C3CC2CN(c2ccc(-c4cc(N5CC(C)(O)C5)cn5ncc(C#N)c45)cn2)C3)cn1"
  MRT inf: "12.4 h"

----------
Test: Phase 1 trial: plasma pharmacokinetics
Assay type: in vivo
Conditions: human, 200 mg, Cycle 1 Day 28, 200 mg BID (n = 5), read-out: Tmax mean

- Chemical Structure: "COc1ccc(CN2C3CC2CN(c2ccc(-c4cc(N5CC(C)(O)C5)cn5ncc(C#N)c45)cn2)C3)cn1"
  Tmax: "2 h"
